# assay.info: Test Example 1: test of coloring stability during storage (washed product)
# Type: physicochemical
# assay.conditions: visually observed after storage for 5 days, air atmosphere, light shielding, 60° C., 75% relative humidity, hydrate
readout: Tone

>>> measured("NC(=O)c1nc[nH]c1O.O [Example 5]")
"White"
>>> measured("NC(=O)c1nc[nH]c1O.O [Example 4]")
"White"
>>> measured("NC(=O)c1nc[nH]c1O.O [Example 10]")
"White"

----------
# assay.info: Test Example 3: coloring stability during storage (unwashed product)
# Type: physicochemical
# assay.conditions: before vs after storage for 5 days, light shielding, 60° C., 75% relative humidity, spectrophotometric color difference meter, reflection method, hydrate
readout: Color difference (ΔE)
// return a plain number; no unit text

>>> measured("NC(=O)c1nc[nH]c1O.O [Comparative Example 1, reference compound]")
62.4

The recorded Color difference (ΔE) for NC(=O)c1nc[nH]c1O.O [Example 9] is 0.9

The recorded Color difference (ΔE) for NC(=O)c1nc[nH]c1O.O [Comparative Example 2, reference compound] is 51.4

The recorded Color difference (ΔE) for NC(=O)c1nc[nH]c1O.O [Example 5] is 4.1

The recorded Color difference (ΔE) for NC(=O)c1nc[nH]c1O.O [Example 8] is 1.4

The recorded Color difference (ΔE) for NC(=O)c1nc[nH]c1O.O [Example 10] is 2.2
